Hi there, I'd appreciate the recorded TGI for every entry that follows.
Test system: PC-3 prostate
Assay: NCI tumour cell line growth inhibition, 48 h

Can you look up TGI on PC-3 prostate for O=C(Nc1cccc(-n2cc(-c3ccncc3)c(-c3ccc(Cl)c(O)c3)n2)c1)Nc1cc(C(F)(F)F)cc(C(F)(F)F)c1 ?
2.24 µM

Can you look up TGI on PC-3 prostate for CN1CCN(C(=O)C(C)(C)c2ccc(C(=O)Nc3cn4cc(-c5ccncc5)ccc4n3)cc2)CC1 ?
> 70.2 µM

Can you look up TGI on PC-3 prostate for Cc1cc(-c2nc3cc(F)ccc3s2)ccc1NC(=O)[C@@H](N)CCCCN ?
21.4 µM

Can you look up TGI on PC-3 prostate for CCOC(=O)c1nc2ccc(C(F)(F)F)cc2nc1Oc1cc(OC)c(OC)c(OC)c1 ?
> 100 µM

Can you look up TGI on PC-3 prostate for COC(C(=O)NN)c1ccccc1 (stereo not given) ?
> 100 µM

Can you look up TGI on PC-3 prostate for Cc1cc(S(=O)(=O)N/C(=C(\C#N)C(=O)c2ccc(Cl)cc2)[n+]2ccc(N(C)C)cc2)c([S-])cc1Cl ?
> 100 µM

Can you look up TGI on PC-3 prostate for CC1=C(c2cccc(O)c2)[C@H](c2ccc(OCCN3CC(CF)C3)cc2)Oc2ccc(O)cc21 ?
20.9 µM

Can you look up TGI on PC-3 prostate for O=C1CCCCC/C1=C\c1ccc([N+](=O)[O-])cc1 ?
> 100 µM

Can you look up TGI on PC-3 prostate for CSC1=C(N)C(=O)c2[nH]cc(CO)c2C1=N ?
0.916 µM

Can you look up TGI on PC-3 prostate for Cc1cc2c(cc1Cl)SC1=NN(C)C(C)N1S2(=O)=O (stereo not given) ?
> 100 µM

Can you look up TGI on PC-3 prostate for CC(C)=NN/C(=N\S(=O)(=O)c1ccc(Oc2cccc(Cl)c2C#N)cc1)Nc1ccc(Cl)cc1 ?
> 100 µM

Can you look up TGI on PC-3 prostate for COc1cc(OC)c2nc(C)c3c(c2c1)SCC3 ?
53.1 µM

Can you look up TGI on PC-3 prostate for COc1cccc(CCN2CCN(CCCc3ccccc3)CC2)c1 ?
> 100 µM

Can you look up TGI on PC-3 prostate for COc1ccc(CC(N)c2ccc(OC)cc2)cc1 (stereo not given) ?
> 100 µM

Can you look up TGI on PC-3 prostate for O=c1cc(N2CCCC2)[nH]c(=O)n1Cc1ccccc1 ?
> 100 µM

Can you look up TGI on PC-3 prostate for Cc1ccc(/C(O)=C/c2nc3ccccc3sc2=O)c(C)c1 ?
> 100 µM

Can you look up TGI on PC-3 prostate for CC(C)CNc1nc2ncnc(N)c2[nH]1 ?
> 100 µM

Can you look up TGI on PC-3 prostate for Cc1ccc(OCC2OC(n3cnc4c(Cl)nc(N)nc43)CC2Oc2ccc(C)cc2)cc1 (stereo not given) ?
> 58.5 µM

Can you look up TGI on PC-3 prostate for CN(C)c1nc(N)nc(CS)n1 ?
> 100 µM

Can you look up TGI on PC-3 prostate for O=c1cnn(C2OC(CO)C(O)C2O)c(=S)[nH]1 (stereo not given) ?
> 100 µM

Can you look up TGI on PC-3 prostate for Cc1[nH]c2ccccc2c1CCCO ?
> 100 µM

Can you look up TGI on PC-3 prostate for O=C1c2cc3c(cc2[C@@H]2[C@H]1c1ccc([N+](=O)[O-])cc1C(=O)N2CCCBr)OCO3 ?
0.184 µM

Can you look up TGI on PC-3 prostate for C/C(O)=C(/C=N/C(=S)Nc1ccc(S(N)(=O)=O)cc1)C(=O)Nc1ccccc1C ?
> 100 µM

Can you look up TGI on PC-3 prostate for O=C1OCC2=C1C(c1cccc(Cl)c1)c1cc3c(cc1N2CCO)OCCO3 (stereo not given) ?
13.1 µM

Can you look up TGI on PC-3 prostate for COc1ccc2c(c1)c(CC(=O)[Se]C)c(C)n2C(=O)c1ccc(Cl)cc1 ?
> 0.897 µM

Can you look up TGI on PC-3 prostate for CCN(CC)N1C(=O)[N+](CC)(CC)N=C1[O-] ?
> 100 µM

Can you look up TGI on PC-3 prostate for NC(=O)NNc1nc(-c2ccccc2)cs1 ?
> 100 µM

Can you look up TGI on PC-3 prostate for Cc1ccc2c(=O)cc(-c3ccc(Cl)s3)[nH]c2n1 ?
> 100 µM

Can you look up TGI on PC-3 prostate for CC1CCC/C1=C(/I)C(=O)c1ccccc1 (stereo not given) ?
> 100 µM

Can you look up TGI on PC-3 prostate for CCC1(c2ccccc2)Sc2ccccc2-n2cccc2C1=O (stereo not given) ?
> 10 µM

Can you look up TGI on PC-3 prostate for O=C1C(Nc2ccc(Cl)cc2)=C(I)C(=O)c2ncccc21 ?
2.6 µM

Can you look up TGI on PC-3 prostate for Cc1ccccc1OCC(O)CN1CCN(c2ccc(Cl)cc2)CC1 (stereo not given) ?
25.9 µM

Can you look up TGI on PC-3 prostate for NC(=O)N/N=C1/CCC(O)CC1CC(=O)O (stereo not given) ?
> 100 µM

Can you look up TGI on PC-3 prostate for COc1cc2nc(N3CCCC3)nc(NCc3ccccc3)c2cc1OC ?
15.2 µM

Can you look up TGI on PC-3 prostate for C[N+](C)(C)c1ccc(C(N)C(=O)O)cc1 (stereo not given) ?
> 100 µM

Can you look up TGI on PC-3 prostate for COc1cc(OC)c(C/C=C/c2ccccc2)cc1O ?
35.6 µM

Can you look up TGI on PC-3 prostate for C/C(=N/NC(=S)N1CCCCC1)c1ccccc1O ?
> 31.6 µM

Can you look up TGI on PC-3 prostate for CO/N=C1\CC(NC(=O)CNC(=O)OC(C)(C)C)c2ccsc21 (stereo not given) ?
> 100 µM

Can you look up TGI on PC-3 prostate for CCCCOC(=O)N1CCN(/[N+]([O-])=N/Oc2ccc([N+](=O)[O-])cc2[N+](=O)[O-])CC1 ?
30.8 µM

Can you look up TGI on PC-3 prostate for Cc1cc(NC(=O)NC(=O)c2ccccc2NC(=O)C(C)N)ccc1Oc1ncc(Br)cn1 (stereo not given) ?
15.2 µM

Can you look up TGI on PC-3 prostate for CC(=O)OCC1OC(SC2=N/C(=C\c3ccc(Br)s3)C(=O)N2CN2CCOCC2)C(OC(C)=O)C(OC(C)=O)C1OC(C)=O (stereo not given) ?
54.5 µM

Can you look up TGI on PC-3 prostate for C#CC#CC#CC#CC#CC#CC#CC#CCC1OCC(COC(=O)O[C@@H](C(=O)O[C@H]2C[C@@]3(O)[C@@H](OC(=O)c4ccccc4)[C@@H]4[C@]5(OC(C)=O)CO[C@@H]5C[C@H](O)[C@@]4(C)C(=O)[C@H](OC(C)=O)C(=C2C)C3(C)C)[C@@H](NC(=O)c2ccccc2)c2ccccc2)O1 (stereo not given in full) ?
> 33.3 µM

Can you look up TGI on PC-3 prostate for COC(OC)[C@@H]1OC[C@H](n2cnc3c(N)ncnc32)[C@H]1O ?
> 100 µM

Can you look up TGI on PC-3 prostate for COc1ccc2c3c1OC1C(=O)C=CC4(CC2)N(C)CCC314 (stereo not given) ?
> 100 µM

Can you look up TGI on PC-3 prostate for C=C(C(N)=O)c1ccc([N+](=O)[O-])o1 ?
76 µM

---

System: NCI-H522 lung
Test: NCI tumour cell line growth inhibition, 48 h; in the data active = GI50 below about 0.43 µM; inactive = the rest
Your answer must be one of the following: active, inactive

Record request — test call for Cc1[nH]c2ccccc2c1CCCO
inactive

Record request — test call for COc1cc2nc(N3CCCC3)nc(NCc3ccccc3)c2cc1OC
inactive

Record request — test call for O=C(N/N=C/C=C/c1ccc([N+](=O)[O-])o1)c1cc2ccccc2cc1O
inactive

Record request — test call for C=C(C)[C@@H]1CC[C@]2(C(=O)N[C@H](CO)Cc3ccccc3)CC[C@]3(C)[C@H](CC[C@@H]4[C@@]5(C)CCCNC(C)(C)[C@@H]5CC[C@]43C)[C@@H]12
inactive

Record request — test call for CCNCCCn1c2c(c3ccc(Cl)cc3c1=O)C(=O)c1cc(OC)cnc1-2
active

Record request — test call for O=C(/C=C/Sc1cc(C(F)(F)F)cc(C(F)(F)F)c1)c1ccc(Cl)cc1
inactive

Record request — test call for COc1cc(C(=O)c2c(-c3ccccc3)oc3c(OC)cccc23)cc(OC)c1OC
active

Record request — test call for O=C(Nc1cccc(-n2cc(-c3ccncc3)c(-c3ccc(Cl)c(O)c3)n2)c1)Nc1cc(C(F)(F)F)cc(C(F)(F)F)c1
inactive

Record request — test call for CC1=C(c2cccc(O)c2)[C@H](c2ccc(OCCN3CC(CF)C3)cc2)Oc2ccc(O)cc21
inactive
